Numbers sourced from PubChem BioAssay.

- ASSAY_NAME: viability loss with induced miR-34 in A549 – imaging, A549 dox-inducible miR-34, nuclei and caspase counts, primary screen (AID 1347080); note: test concentration not given here
- ASSAY_CONDITIONS: A549 miR-34 inducible, Hoechst nuclei count, 48 h; hits give low values; cell number ratio, induced over uninduced
MEASURED_ATTRIBUTE: fold change
Just the number, please, no unit after it.

Examples from the recorded data:
{"COMPOUND": "CCC1OC(=O)C(C)C(OC2C[C@@](C)(OC)C(O)C(C)O2)C(C)C(OC2OC(C)CC(N(C)C)C2O)[C@@](C)(O)CC(C)C(=O)C(C)C(O)[C@]1(C)O (some centres undefined)", "fold change": 0.879}
{"COMPOUND": "O=C1NCc2c1c1c3ccccc3[nH]c1c1[nH]c3ccccc3c21", "fold change": 1.15}
{"COMPOUND": "OCC1OC(n2cnc3c(NC4CCCC4)nc(Cl)nc32)C(O)C1O (centres undefined)", "fold change": 0.88}

Note: attention shifts to another entry.
Which fold change value is on record for COc1ccc(CC(N)C(=O)NC2C(CO)OC(n3cnc4c(N(C)C)ncnc43)C2O)cc1 (centres undefined) ? 1
